system: cGAS activity in THP1 cells; assay: Cellular assay: ISRE-Gaussia luciferase reporter THP1 cells transfected with ISD (Interferon Stimulatory DNA); assay type: cell-based; conditions: Homo sapiens, THP-1; ISRE-Gaussia luciferase reporter THP1 cells transfected with 2 μg/mL ISD, 16 hours; read-out: THP1-ISD (Inhibition of cGAS activity in THP1 cells, IC50)
Please respond with reported IC50 for every item in the list.

I would be grateful if you could share the reported IC50 for COc1cc(/C=C2\SC(=S)N(C)C2=O)c(Br)cc1O [Ex38] .
2.5 to 10 µM

I would be grateful if you could share the reported IC50 for CC(Oc1cc(/C=c2\sc3nccn3c2=O)c(Br)c(F)c1O)c1cnc(N)nc1 (stereo not drawn) [ExA12] .
≥ 10 µM

I would be grateful if you could share the reported IC50 for Cc1nc(N)ncc1COc1cc(/C=C2\Sc3ncccc3C2=O)c(Br)cc1O [Ex116] .
≤ 2.5 µM

I would be grateful if you could share the reported IC50 for CN1C(=O)S/C(=C\c2cc(OCc3cccnc3)c(O)c(F)c2Br)C1=O [Ex106] .
2.5 to 10 µM

I would be grateful if you could share the reported IC50 for CCOc1cc(/C=C2\Sc3ncccc3C2=O)c(Br)cc1O [Ex112] .
2.5 to 10 µM

I would be grateful if you could share the reported IC50 for C[S+]([O-])c1ncc(COc2cc(/C=C3\Sc4ncccc4C3=O)c(Br)c(F)c2O)cn1 (stereo not drawn) [ExA15] .
2.5 to 10 µM

====

test system: cGAS activity in THP1 cells; experiment: Cellular assay: ISRE-Gaussia luciferase reporter THP1 cells transfected with ISD (Interferon Stimulatory DNA); assay type: cell-based; details: Homo sapiens, THP-1; ISRE-Gaussia luciferase reporter THP1 cells transfected with 2 μg/mL ISD, 16 hours; read-out: THP1-ISD (Inhibition of cGAS activity in THP1 cells, IC50)
Please respond with reported IC50 for every item in the list.

I would be grateful if you could share the reported IC50 for `CN1C(=O)S/C(=C\c2cc(OCc3ncc(N)cn3)c(O)cc2Br)C1=O` .
2500 to 10000 nM

I would be grateful if you could share the reported IC50 for `Cc1nc(N)ncc1COc1cc(/C=C2\SC(=O)N(C)C2=O)c(Br)c(F)c1O` .
≤ 2500 nM

I would be grateful if you could share the reported IC50 for `Cc1ncc(COc2cc(/C=C3\Sc4ncccc4C3=O)c(Br)cc2O)cn1` .
2500 to 10000 nM

I would be grateful if you could share the reported IC50 for `O=C1/C(=C/c2cc(OC(F)(F)F)c(O)cc2Br)Sc2ncccc21` .
2500 to 10000 nM

I would be grateful if you could share the reported IC50 for `CN1C(=O)S/C(=C\c2cc(OCc3cnc[nH]3)c(O)cc2Br)C1=O` .
2500 to 10000 nM

I would be grateful if you could share the reported IC50 for `COc1cc(/C=c2\sc3nccn3c2=O)c(Br)cc1O` .
2500 to 10000 nM

I would be grateful if you could share the reported IC50 for `COc1cc(/C=C2\Sc3ccccc3C2=O)c(Br)cc1O` .
≤ 2500 nM

I would be grateful if you could share the reported IC50 for CC(Oc1cc(/C=C2\SC(=O)N(C)C2=O)c(Br)cc1O)c1cncnc1N (stereo not shown) .
2500 to 10000 nM

I would be grateful if you could share the reported IC50 for `COCCNc1ncc(COc2cc(/C=C3\SC(=O)N(C)C3=O)c(Br)c(F)c2O)cn1` .
2500 to 10000 nM

I would be grateful if you could share the reported IC50 for CC(Oc1cc(/C=C2\Sc3ncccc3C2=O)c(Br)cc1O)c1cnc(N)nc1 (stereo not shown) .
≤ 2500 nM

I would be grateful if you could share the reported IC50 for `O=C1/C(=C/c2cc(OCc3cnc(NCc4cccnc4)nc3)c(O)c(F)c2Br)Sc2ncccc21` .
2500 to 10000 nM

I would be grateful if you could share the reported IC50 for `O=C1/C(=C/c2cc(OCc3cnc(NCc4ccncc4)nc3)c(O)cc2Br)Sc2ncccc21` .
≤ 2500 nM

I would be grateful if you could share the reported IC50 for `CN1C(=O)S/C(=C\c2cc3c(-c4cnc(N)nc4)c[nH]c3c(F)c2Br)C1=O` .
2500 to 10000 nM

I would be grateful if you could share the reported IC50 for `CC(C)C(=O)N1CCC(COc2cc(/C=C3\SC(=O)N(C)C3=O)c(Br)cc2O)CC1` .
2500 to 10000 nM

I would be grateful if you could share the reported IC50 for `CN1C(=O)S/C(=C\c2cc(OCC3CCCCC3)c(O)cc2Br)C1=O` .
2500 to 10000 nM

I would be grateful if you could share the reported IC50 for `CN1C(=O)S/C(=C\c2cc(OCc3cnc(N)nc3C3CC3)c(O)cc2Br)C1=O` .
2500 to 10000 nM

I would be grateful if you could share the reported IC50 for `CN1C(=O)S/C(=C\c2cc(OCc3cnc(NCc4ccncc4)nc3)c(O)cc2Br)C1=O` .
2500 to 10000 nM

I would be grateful if you could share the reported IC50 for CC(Oc1cc(/C=C2\Sc3ncccc3C2=O)c(Br)c(F)c1O)c1cnc(N)nc1 (stereo not shown) .
2500 to 10000 nM

I would be grateful if you could share the reported IC50 for CC(Oc1cc(/C=C2\SC(=O)N(C)C2=O)c(Br)c(F)c1O)c1cnc(Cl)nc1 (stereo not shown) .
2500 to 10000 nM
